Provenance of the data: patent US9498483B2

So I've got IC50 readings for HCV polymerase (Hepatitis C virus genotype 1b, UniProt Q9WMX2), take a look.

Before answering, review these 6 worked examples.
> print(dat)
                                   compound  parameter  result
1  CN1CCN(C(=O)c2ccc(-c3ccc(S(=O)(=O)N4CC(=O)N(c5cc(-c6ccccc6)sc5C(=O)O)[C@H](C5CCCCC5)C4)cn3)cc2)CC1       IC50    1 nM
2  O=C(O)c1sc(-c2ccc(Cl)cc2)cc1N1C(=O)COC[C@H]1C1CCCCC1       IC50    5 nM
3  Cc1ccc(-c2cc(N3C(=O)CN(S(=O)(=O)c4ccc(N5CC6CCC(C5)O6)nc4)C[C@H]3C3CCCCC3)c(C(=O)O)s2)cc1       IC50    1 nM
4  CC(C)(C)C#Cc1cc(N2C(=O)[C@H](CCO)OC[C@H]2C2CCCCC2)c(C(=O)O)s1       IC50   12 nM
5  Cc1occc1-c1ccc(S(=O)(=O)N2CC(=O)N(c3cc(-c4ccccc4)sc3C(=O)O)[C@H](C3CCCCC3)C2)cn1       IC50    2 nM
6  Cn1cc(-c2ccc(S(=O)(=O)N3CC(=O)N(c4cc(-c5ccccc5)sc4C(=O)O)[C@H](C4CCCCC4)C3)cn2)cn1       IC50    2 nM

Provide reported IC50 for each item, in the same order as listed.
1. N[C@H]1CC(=O)N(c2cc(-c3ccccc3)sc2C(=O)O)[C@@H](C2CCCCC2)C1
2. CC1CN(c2ccc(S(=O)(=O)N3CC(=O)N(c4cc(-c5ccccc5)sc4C(=O)O)C(C4CCCCC4)C3)cn2)CC(C)O1 (centres unmarked)

245 nM
5 nM

Lab note: each compound below needs its IC50 filled in.
1. CC1(N)CCN(c2ccc(S(=O)(=O)N3CC(=O)N(c4cc(-c5ccccc5)sc4C(=O)O)[C@H](C4CCCCC4)C3)cn2)CC1
2. CNC(=O)c1ccc(S(=O)(=O)N2CC(=O)N(c3cc(C#CC(C)(C)C)sc3C(=O)O)[C@H](C3CCCCC3)C2)cc1
3. O=C(O)c1sc(-c2ccccc2)cc1N1C(=O)CN(S(=O)(=O)c2ccc(N3CCC(O)CC3)nc2)CC1C1CCCCC1 (centres unmarked)
4. Cn1ccc2c(S(=O)(=O)N3CC(=O)N(c4cc(-c5ccccc5)sc4C(=O)O)C(C4CCCCC4)C3)cccc21 (centres unmarked)
5. O=C(O)c1sc(-c2ccccc2)cc1N1C(=O)CN(S(=O)(=O)c2ccccc2)CC1C1CCCCC1 (centres unmarked)

1: 1 nM; 2: 2 nM; 3: 4 nM; 4: 31 nM; 5: 15 nM

Check the records and state IC50 for C[C@@H]1CCCN1c1ccc(S(=O)(=O)N2CC(=O)N(c3cc(-c4ccc(Cl)cc4)sc3C(=O)O)[C@H](C3CCCCC3)C2)cc1
1 nM

---

# test.target: HCV polymerase (Hepatitis C virus genotype 1b)
parameter: pIC50
Numbers only, as −log10 of the molar value.

Hello, I would appreciate it if you could give pIC50 for each entry below.
1. Cc1ccc(-c2cc(N3C(=O)CN(S(=O)(=O)c4ccc(N5C[C@H]6C[C@@H]5CO6)nc4)C[C@H]3C3CCCCC3)c(C(=O)O)s2)cc1
2. C[C@@H]1CCC[C@H](C)N1c1ccc(S(=O)(=O)N2CC(=O)N(c3cc(-c4ccccc4)sc3C(=O)O)C(C3CCCCC3)C2)cn1 (stereo partly drawn)
3. CC(C)(C)C#Cc1cc(N2C(=O)CN(S(=O)(=O)c3ccc(C(F)(F)F)cc3)C[C@H]2C2CCCCC2)c(C(=O)O)s1

1: 9.00; 2: 7.96; 3: 8.26

For every record below, what is its pIC50?
1. CC(C)(C)C#Cc1cc(N2C(=O)[C@H](O)CC[C@H]2C2CCCCC2)c(C(=O)O)s1
2. CC(C)(C)C#Cc1cc(N2C(=O)[C@H](CCCO)OC[C@H]2C2CCCCC2)c(C(=O)O)s1 (single isomer, unassigned)

8.52
7.46

// fetch pIC50 given entry CC(C)(C)OC(=O)N[C@@H]1CCN(c2ccc(S(=O)(=O)N3CC(=O)N(c4cc(-c5ccccc5)sc4C(=O)O)[C@H](C4CCCCC4)C3)cn2)C1
8.70
